Each record here notes measured LD50.
assay.details: Acute toxicity (LD50)
run.parameters: in vivo, ip, in the mouse, calculated as the hydrochloride salt
Structures can show the parent of a compound that is named as a salt.
readout.kind: LD50

> print(dat)
                                   molecule  readout.kind    reported
1  C[C@@H]1NC(C)(C)CO[C@@]1(O)c1ccc(F)cc1 (relative stereo) [IB, hydrochloride]          LD50  ~160 mg/kg
2  C[C@@H]1NC(C)(C)CO[C@@]1(O)c1ccccc1 (relative stereo) [IA, hydrochloride]          LD50  ~160 mg/kg

Values were extracted from patent EP0170430A1.
